# Type: in vitro ADME, mouse
# experimental parameters: mouse, hepatocytes
readout name: Mouse Heps Cl (mL/min/g)
Quick note: give the figure in mL/min/g, leave out the unit.

Sample "CCOC(=O)c1nc(-c2ccccc2)oc1NC(=O)c1c(F)c(F)c(F)c(F)c1F" ; Mouse Heps Cl observed: 10

Entry "Cc1noc(-c2nc(C)oc2NC(=O)c2c(F)c(F)c(F)c(F)c2F)n1" ; Mouse Heps Cl = 3.4

* * *

# procedure details: physchem
# Type: physicochemical
# experimental parameters: read-out: Kin. Sol
readout name: log10 of solubility kinetic (log10 of the value in µM)
# values: log10(solubility kinetic), units µM

// Cc1nc(-c2ncco2)c(NC(=O)c2c(F)c(F)c(F)c(F)c2F)o1 [Compound 41] : log10 of solubility kinetic value = 2.37

The measured log10 of solubility kinetic associated with CCOC(=O)c1nc(C)oc1NC(=O)c1c(F)c(F)c(F)c(F)c1F [Compound 24] reads 2.31

// sample CN(C)c1ccnc2oc(-c3c(F)c(F)c(F)c(F)c3F)nc12 [Compound 13] , its log10 of solubility kinetic was 0.20

Data point: CCOC(=O)c1nc(COC)oc1NC(=O)c1c(F)c(F)c(F)c(F)c1F [Compound 33] ; log10 of solubility kinetic = 2.36

Entry COC(=O)c1c(C)noc1NC(=O)c1c(F)c(F)c(F)c(F)c1F [Compound 22] — recorded log10 of solubility kinetic = 2.38

In plain terms, COC(=O)c1cnccc1NC(=O)c1c(F)c(F)c(F)c(F)c1F [Compound 16] has a documented log10 of solubility kinetic of 2.05

Quick note, log10 of solubility kinetic for CCOC(=O)c1nc(C)oc1NCc1c(F)c(F)c(F)c(F)c1F [Compound 29] landed at 1.36

log10 of solubility kinetic in this record for CCOC(=O)c1nc(N(C)C)oc1NC(=O)c1c(F)c(F)c(F)c(F)c1F [Compound 32] : 2.34

log10 of solubility kinetic in this record for Oc1ncnc2oc(-c3c(F)c(F)c(F)c(F)c3F)nc12 [Compound 15, Oc1ncnc2oc(nc12)-c1c(c(c(c(c1F)F)F)F)F] : 2.17
